- Measurement notes: in vivo
- Set-up: species or system mice
- Experimental parameters: mouse, iv, 3.4 MBq, total radioactivity, Biodistribution, Intestine
Parameter measured: tissue uptake at 5 min

[[record]]
molecule = "CC(=O)NC(CCCCNC(=O)CN1CCN(CC(=O)O)CCN(CC(=O)O)CCN(CC(=O)O)CC1)C(=O)N1CCCC1C(=O)N(C)C(CCCNC(=N)N)C(=O)NC(CCCNC(=N)N)C(=O)N1CCCC1C(=O)NC(Cc1ccc(O)cc1)C(=O)NC(C(=O)NC(CC(C)C)C(=O)O)C(C)(C)C (stereo not shown) [^68Ga-DOTA-NT-20.3, metal not drawn]"
parameter_measured = "tissue uptake at 5 min"
result = "3.28 %ID/g"


====

- Measurement notes: in vivo
- Set-up: species or system mice
- Experimental parameters: mouse, iv, 3.4 MBq, total radioactivity, Biodistribution, Liver
Parameter measured: tissue uptake at 2 h (%ID/g)

[[record]]
compound = "CC(=O)NC(CCCCNC(=O)CN1CCN(CC(=O)O)CCN(CC(=O)O)CCN(CC(=O)O)CC1)C(=O)N1CCCC1C(=O)N(C)C(CCCNC(=N)N)C(=O)NC(CCCNC(=N)N)C(=O)N1CCCC1C(=O)NC(Cc1ccc(O)cc1)C(=O)NC(C(=O)NC(CC(C)C)C(=O)O)C(C)(C)C (stereo not shown) [^68Ga-DOTA-NT-20.3, metal not drawn]"
units_text = "%ID/g"
number = 0.86


====

- Measurement notes: in vivo
- Set-up: species or system mice
- Experimental parameters: mouse, iv, 3.4 MBq, total radioactivity, Biodistribution, Intestine
- Description: Blood and major organs were harvested immediately, weighed, and counted using a γ-counter. The radioactivity of each sample was calculated as the percentage of injected dose per gram of tissue (%ID/g) and corrected for radioactive decay.
Parameter measured: tissue uptake at 1 h (%ID/g)

[[record]]
molecule = "CC(=O)NC(CCCCNC(=O)CN1CCN(CC(=O)O)CCN(CC(=O)O)CCN(CC(=O)O)CC1)C(=O)N1CCCC1C(=O)N(C)C(CCCNC(=N)N)C(=O)NC(CCCNC(=N)N)C(=O)N1CCCC1C(=O)NC(Cc1ccc(O)cc1)C(=O)NC(C(=O)NC(CC(C)C)C(=O)O)C(C)(C)C (stereo not shown) [^68Ga-DOTA-NT-20.3, metal not drawn]"
number = 0.77


====

- Measurement notes: in vivo
- Design: species or system mice
- Experimental parameters: mouse, iv, 3.4 MBq, total radioactivity, Biodistribution, Spleen
Parameter measured: tissue uptake at 1 h (%ID/g)

[[record]]
molecule = "CC(=O)NC(CCCCNC(=O)CN1CCN(CC(=O)O)CCN(CC(=O)O)CCN(CC(=O)O)CC1)C(=O)N1CCCC1C(=O)N(C)C(CCCNC(=N)N)C(=O)NC(CCCNC(=N)N)C(=O)N1CCCC1C(=O)NC(Cc1ccc(O)cc1)C(=O)NC(C(=O)NC(CC(C)C)C(=O)O)C(C)(C)C (stereo not shown) [^68Ga-DOTA-NT-20.3, metal not drawn]"
parameter_measured = "tissue uptake at 1 h"
number = 1.06


====

- Measurement notes: in vivo
- Parameters: species or system mice
- Experimental parameters: mouse, iv, 3.4 MBq, total radioactivity, Biodistribution, Testis
Parameter measured: tissue uptake at 1 h (%ID/g)

[[record]]
compound = "CC(=O)NC(CCCCNC(=O)CN1CCN(CC(=O)O)CCN(CC(=O)O)CCN(CC(=O)O)CC1)C(=O)N1CCCC1C(=O)N(C)C(CCCNC(=N)N)C(=O)NC(CCCNC(=N)N)C(=O)N1CCCC1C(=O)NC(Cc1ccc(O)cc1)C(=O)NC(C(=O)NC(CC(C)C)C(=O)O)C(C)(C)C (stereo not shown) [^68Ga-DOTA-NT-20.3, metal not drawn]"
parameter_measured = "tissue uptake at 1 h"
units_text = "%ID/g"
number = 0.42


// provenance: paper PMC9454456
